Target: F508delCFTR (Homo sapiens, UniProt P13569, DEL508-508)
Construct: expressed in transfected cells; host or cells: CFBE41o- human lung derived epithelial cells (CFBE41o-F508delCFTR-HRP), doxycycline-inducible
Sequence (P13569 with tags, fused parts or gaps DEL508-508): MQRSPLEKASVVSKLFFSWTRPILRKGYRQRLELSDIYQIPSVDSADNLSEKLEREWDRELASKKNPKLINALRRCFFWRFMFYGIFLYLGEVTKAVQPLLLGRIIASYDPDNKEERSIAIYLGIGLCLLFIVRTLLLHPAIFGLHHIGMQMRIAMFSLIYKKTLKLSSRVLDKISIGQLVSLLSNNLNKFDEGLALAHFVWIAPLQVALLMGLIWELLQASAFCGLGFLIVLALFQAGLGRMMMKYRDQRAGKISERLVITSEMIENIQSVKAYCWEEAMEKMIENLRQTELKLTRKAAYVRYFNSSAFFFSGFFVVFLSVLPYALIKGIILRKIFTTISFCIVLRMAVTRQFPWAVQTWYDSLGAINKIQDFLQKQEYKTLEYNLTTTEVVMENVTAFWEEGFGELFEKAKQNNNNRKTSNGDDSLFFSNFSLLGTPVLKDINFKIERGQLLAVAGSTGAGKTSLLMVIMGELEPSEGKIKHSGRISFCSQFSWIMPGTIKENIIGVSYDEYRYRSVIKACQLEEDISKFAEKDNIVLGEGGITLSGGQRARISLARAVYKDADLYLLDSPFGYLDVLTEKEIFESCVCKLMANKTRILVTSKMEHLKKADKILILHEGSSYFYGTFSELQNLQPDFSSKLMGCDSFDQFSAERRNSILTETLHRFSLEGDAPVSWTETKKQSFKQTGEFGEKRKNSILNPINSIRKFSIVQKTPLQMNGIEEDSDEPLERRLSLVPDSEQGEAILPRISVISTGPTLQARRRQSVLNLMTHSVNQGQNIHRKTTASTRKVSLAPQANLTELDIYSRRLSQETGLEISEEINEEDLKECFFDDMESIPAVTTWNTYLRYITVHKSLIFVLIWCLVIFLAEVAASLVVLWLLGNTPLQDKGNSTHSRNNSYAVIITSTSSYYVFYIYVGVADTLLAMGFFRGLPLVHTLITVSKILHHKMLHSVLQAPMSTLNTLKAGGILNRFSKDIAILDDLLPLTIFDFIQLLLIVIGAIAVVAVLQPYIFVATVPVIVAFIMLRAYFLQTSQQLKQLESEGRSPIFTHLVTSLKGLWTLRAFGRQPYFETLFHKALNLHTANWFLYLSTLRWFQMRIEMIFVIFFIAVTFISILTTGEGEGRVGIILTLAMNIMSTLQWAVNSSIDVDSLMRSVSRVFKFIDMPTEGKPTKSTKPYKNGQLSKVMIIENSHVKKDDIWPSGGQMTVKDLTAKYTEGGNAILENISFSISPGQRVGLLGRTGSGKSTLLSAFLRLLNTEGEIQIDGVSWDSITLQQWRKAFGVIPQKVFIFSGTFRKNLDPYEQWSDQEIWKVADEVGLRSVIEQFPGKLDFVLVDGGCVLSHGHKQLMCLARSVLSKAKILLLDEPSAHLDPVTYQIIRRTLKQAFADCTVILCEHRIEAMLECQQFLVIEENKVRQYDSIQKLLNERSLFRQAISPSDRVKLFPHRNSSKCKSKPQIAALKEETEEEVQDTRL
Test: Cell Surface Expression-Horse Radish Peroxidase (CSE-HRP) Assay
Assay type: cell-based
Conditions: test compound alone, without co-corrector; read-out: EC50 (without co-corrector)
Each item that follows carries a reported EC50.

{"columns": ["compound-structure-string", "measured-target", "EC50"],
 "data": [
  ["COc1ccc(C(C)(C)C)cc1C1(C(=O)NS(=O)(=O)c2cccc3ncccc23)CC1", "F508delCFTR (Homo sapiens, UniProt P13569, DEL508-508)", "< 3 µM"],
  ["COc1ccc(C)nc1C1(C(=O)NS(=O)(=O)c2cccc3ccccc23)CC1", "F508delCFTR (Homo sapiens, UniProt P13569, DEL508-508)", "3 to 10 µM"],
  ["COC(C)(C)c1ccc(OC(F)F)c(C2(C(=O)NS(=O)(=O)c3cccc4ncccc34)CC2)c1", "F508delCFTR (Homo sapiens, UniProt P13569, DEL508-508)", "3 to 10 µM"],
  ["CN(C)c1ncc(C(F)(F)F)cc1C1(C(=O)NS(=O)(=O)c2cccc3ncccc23)CC1", "F508delCFTR (Homo sapiens, UniProt P13569, DEL508-508)", "< 3 µM"]
]}

---

Target: F508delCFTR (Homo sapiens, UniProt P13569, DEL508-508)
Construct: expressed in transfected cells; host or cells: CFBE41o- human lung derived epithelial cells (CFBE41o-F508delCFTR-HRP), doxycycline-inducible
Assay: Cell Surface Expression-Horse Radish Peroxidase (CSE-HRP) Assay
Type: cell-based
Details: test compound without co-corrector; read-out: EC50 (without co-corrector)
Each item that follows carries a reported EC50.

{"columns": ["molecule", "EC50"],
 "data": [
  ["CC(C)COc1ncc(N2CCCC2)cc1C1(C(=O)NS(=O)(=O)c2cccc3ncccc23)CC1 [Example GI-68]", "< 3 µM"],
  ["CC(C)Oc1ccc(C2CCC2)nc1C1(C(=O)NS(=O)(=O)c2cccc3ncccc23)CC1 [Example GI-39]", "< 3 µM"],
  ["CC(C)Oc1cc(C2CCC2)cnc1C1(C(=O)NS(=O)(=O)c2cccc3ncccc23)CC1 [GII-27]", "3 to 10 µM"],
  ["CCc1cnc(N2CCN(C)CC2)c(C2(C(=O)NS(=O)(=O)c3cccc4ncccc34)CC2)c1 [GIII-33]", "> 10 µM"],
  ["Cc1ccc2c(S(=O)(=O)NC(=O)C3(c4cc(N5CCCC5)cnc4OC(C)C)CC3)cccc2n1 [Example GI-63]", "< 3 µM"],
  ["O=C(NS(=O)(=O)c1cccc2[nH]ccc12)C1(c2cc(C3CCC3)cnc2OCC2CC2)CC1 [Example GI-98]", "< 3 µM"],
  ["O=C(NS(=O)(=O)c1cccc2ccccc12)C1(c2cc(Cl)cnc2C(F)(F)F)CC1 [GII-5]", "3 to 10 µM"],
  ["Cc1ccc2c(S(=O)(=O)NC(=O)C3(c4cc(C5CC5)cnc4OCC(C)C)CC3)cccc2n1 [Example GI-49]", "< 3 µM"]
]}

---

Biological target: F508delCFTR (Homo sapiens, UniProt P13569, DEL508-508)
Construct: expressed in transfected cells; host or cells: CFBE41o- human lung derived epithelial cells (CFBE41o-F508delCFTR-HRP), doxycycline-inducible
Experiment: Cell Surface Expression-Horse Radish Peroxidase (CSE-HRP) Assay;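 on Maximum % activity (without co-corrector): % of on-plate positive control chromenyl benzoic acid corrector at 2 or 3 µM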
Format: cell-based
Settings: without co-corrector; maximum at any tested concentration; read-out: Maximum % activity (without co-corrector)
measured-parameter: Emax

{"columns": ["compound-structure-string", "test-value"],
 "data": [
  ["COc1ncc(C(F)(F)F)cc1C1(C(=O)NS(=O)(=O)c2cccc3c2ccn3C)CC1", "> 150%"],
  ["COc1c(Cl)cc(Cl)c(OC)c1C1(C(=O)NS(=O)(=O)c2cccc3ncccc23)CC1", "> 150%"],
  ["COc1ccc(C)c(OC)c1C1(C(=O)NS(=O)(=O)c2cccc3ccc(C)nc23)CC1", "50 to 150%"],
  ["[2H]C1(c2ccc(OC)c(C3(C(=O)NS(=O)(=O)c4cccc5ncccc45)CC3)c2)COC1", "> 150%"],
  ["COc1ccc(C)c(C2(C(=O)NS(=O)(=O)c3cccc4ncccc34)CCN(C)CC2)c1", "< 50%"],
  ["COc1ncc(C(F)(F)F)cc1C1(C(=O)NS(=O)(=O)c2cccc3ncn(C)c23)CC1", "50 to 150%"],
  ["O=C(NS(=O)(=O)c1cccc2ccccc12)C1(c2cccc(Br)c2)CC1", "> 150%"],
  ["CCOc1ccc(C)cc1C1(C(=O)NS(=O)(=O)c2cccc3[nH]ccc23)CC1", "> 150%"]
]}
